Target system: P2X purinoceptor 7 (Rattus norvegicus)
Sequence (Q64663 whole entry): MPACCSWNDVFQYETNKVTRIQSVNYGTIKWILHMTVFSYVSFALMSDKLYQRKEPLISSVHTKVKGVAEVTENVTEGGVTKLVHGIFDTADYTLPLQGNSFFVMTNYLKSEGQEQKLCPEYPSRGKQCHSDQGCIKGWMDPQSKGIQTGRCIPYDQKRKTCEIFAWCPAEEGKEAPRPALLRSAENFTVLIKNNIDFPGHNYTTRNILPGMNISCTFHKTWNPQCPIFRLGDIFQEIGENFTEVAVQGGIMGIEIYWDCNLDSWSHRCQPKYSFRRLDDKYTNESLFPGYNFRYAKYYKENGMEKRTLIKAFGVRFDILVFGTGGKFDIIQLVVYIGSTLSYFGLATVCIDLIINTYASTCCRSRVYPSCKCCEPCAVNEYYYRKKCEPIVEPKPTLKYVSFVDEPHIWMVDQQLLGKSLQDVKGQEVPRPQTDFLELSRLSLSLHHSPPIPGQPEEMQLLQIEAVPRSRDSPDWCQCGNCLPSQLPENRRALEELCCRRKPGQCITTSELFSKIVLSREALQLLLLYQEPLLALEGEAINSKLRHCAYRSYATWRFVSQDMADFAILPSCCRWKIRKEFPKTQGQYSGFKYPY
Assay summary: Antagonist activity against rat recombinant ATP-gated P2X7 receptor expressed in human 1321N1 cells assessed as reduction in BzATP -induced Ca2+ flux pre-incubated for 30 mins before BzATP addition by calcium-4 dye based FLIPR assay
Assay type: cell-based
Value type: pIC50
Convention used: pIC50 is expressed as -log10 of the molar concentration.

Input: Any idea what pIC50 was measured for COc1cccc(C(=O)N2Cc3nc(C)nc(-c4ccn[nH]4)c3CC2C)c1F (stereo unspecified) ?
Output: 5.84

----------
Below, each entry is listed alongside its reported Activity.
Target system: P2X purinoceptor 7 (Homo sapiens)
Assay summary: Antagonist activity against ATP-gated P2X7 receptor in LPS-stimulated human PBMC assessed as reduction in P2X7 agonist 2'(3')-O-(4-benzoylbenzoyl) adenosine 5'-triphosphate-induced IL-1beta at 1 uM incubated for 30 mins after 1 hr pre-treatment with LPS followed by Bz-ATP-stimulation for 1.5 hrs by ELISA
Set-up: scale not given: the % may be the effect or the level left
Number only, in %; omit the unit.

The following compounds have reported results that may help.
>>> number("O=C(c1cccc(Cl)c1Cl)N1CCc2c(ncnc2-c2ccn[nH]2)C1")
14.2
>>> number("Cc1nc2c(c(-c3c(C)noc3C)n1)CCN(C(=O)c1cccc(C(F)(F)F)c1Cl)C2")
104
>>> number("O=C(c1cccc(Cl)c1Cl)N1CCc2c(ncnc2-n2nccn2)C1")
71.8

Continue with the compound presented below.
Input: Reported Activity, compound O=C(c1cccc(C(F)(F)F)c1Cl)N1CCc2c(ncnc2-c2ccccn2)C1 : ____
Output: 26.9
